# Lookup of reported Activity against human GCGR (EC50 nM) keyed by entry
Target: human glucagon receptor (human, UniProt P47871 26-477)
Sequence (P47871 26-477): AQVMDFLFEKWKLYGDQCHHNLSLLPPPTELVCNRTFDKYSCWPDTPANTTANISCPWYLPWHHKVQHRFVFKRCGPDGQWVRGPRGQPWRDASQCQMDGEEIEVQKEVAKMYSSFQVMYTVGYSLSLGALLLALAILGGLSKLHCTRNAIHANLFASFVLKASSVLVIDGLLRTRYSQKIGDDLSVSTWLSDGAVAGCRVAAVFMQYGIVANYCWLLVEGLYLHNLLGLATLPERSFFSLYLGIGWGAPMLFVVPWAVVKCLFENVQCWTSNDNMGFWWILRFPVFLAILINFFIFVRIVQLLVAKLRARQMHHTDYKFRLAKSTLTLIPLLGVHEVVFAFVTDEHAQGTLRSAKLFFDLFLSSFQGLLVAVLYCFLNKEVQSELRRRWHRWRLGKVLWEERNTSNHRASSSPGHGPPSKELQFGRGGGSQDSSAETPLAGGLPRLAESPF
Experiment: cell-based or functional assay
Starred links: 1 amine or outer side, 2 acyl side, 3 side chain; linkers in the order of their positions; H or OH if unused. Non-standard residues stand in square brackets, D forms with d. Groups on a side chain read outwards from the residue. No end group written: not given here. *: point of attachment. C20 diacid = O=C(O)CCCCCCCCCCCCCCCCCCC(=O)*; γGlu = O=C(O)[C@H](CCC(=O)[*:2])N[*:1]; αMeL = CC(C)C[C@](C)(N)C(=O)O; Iva = CC[C@](C)(N)C(=O)O; AEEA = NCCOCCOCC(=O)O; Aib = CC(C)(N)C(=O)O

>  <binder>
H[Aib]HGTFTSDYSILLEK([AEEA-AEEA-γGlu-C20 diacid])KAA[Iva]EFVEWLLAGGPSSGAPPPS-NH2 [Compound No. 0135]

>  <Activity against human GCGR (EC50 nM)>
0.019

$$$$
>  <binder>
H[Aib]HGTFTSDYSI[αMeL]LEK([AEEA-AEEA-γGlu-C20 diacid])KAA[Iva]EFVEWLLAGGPSSGAPPPS-NH2 [Compound No. 0137]

>  <Activity against human GCGR (EC50 nM)>
0.047

$$$$
>  <binder>
H[Aib]HGTFTSDLSI[αMeL]LEK([AEEA-AEEA-γGlu-C20 diacid])KAA[Iva]EFVEWLLAGGPSSGAPPPS-NH2 [Compound No. 0138]

>  <Activity against human GCGR (EC50 nM)>
0.055

$$$$
>  <binder>
H[Aib]HGTFTSDLSILLEK([AEEA-AEEA-γGlu-C20 diacid])KAA[Iva]EFVEWLLAGGPSSGAPPPS-NH2 [Compound No. 0136]

>  <Activity against human GCGR (EC50 nM)>
0.039

$$$$
